Source: ChEMBL document CHEMBL5518220

- run-description: Tmax in dog at 1 mg/kg, po by LC-MS/MS analysis
- Format: ADME, organism-based, Canis lupus familiaris
- condition-details: in vivo
parameter: Tmax (h)
Supply the numeric figure in h, leaving out any unit text.

Supply Tmax value. Item: Cc1cnc2c(NC(=O)c3cn4cc(C56COC(C)(C5)C6)nc4nc3OC(C)C)cnn2c1
2.6

====

- run-description: Clearance in dog at 1 mg/kg, iv by LC-MS/MS analysis
- Format: ADME, organism-based, Canis lupus familiaris
- condition-details: in vivo
parameter: clearance (mL/min/kg)
Respond with the bare value in mL/min/kg.

Please report the measured clearance for Cc1cnc2c(NC(=O)c3cn4cc(C56COC(C)(C5)C6)nc4nc3OC(C)C)cnn2c1
3.5

====

- run-description: AUCinfinity in cynomolgus monkey at 1 mg/kg, iv by LC-MS/MS analysis
- Assay type: ADME, organism-based, Macaca fascicularis
- condition-details: in vivo
parameter: AUC(0-inf) (ng·h/mL)
State the answer as a number, implicitly in ng·h/mL.

Please give measured AUC(0-inf) of the following entry: Cc1cnc2c(NC(=O)c3cn4cc(C56COC(C)(C5)C6)nc4nc3OC(C)C)cnn2c1
6440

====

- run-description: Half life in rat at 1 mg/kg, iv by LC-MS/MS analysis
- Assay type: ADME, organism-based
- condition-details: in vivo
parameter: half-life (h)
A number alone suffices; assume h.

Hello, please tell me recorded half-life for this one: Cc1cnc2c(NC(=O)c3cn4cc(C56COC(C)(C5)C6)nc4nc3OC(C)C)cnn2c1
12

====

- run-description: Volume of distribution at steady state in dog at 1 mg/kg, iv by LC-MS/MS analysis
- Type: ADME, organism-based, Canis lupus familiaris
- condition-details: in vivo, read-out: Vdss
parameter: Vd (L/kg)
Number in L/kg, nothing else.

Report Vd for Cc1cnc2c(NC(=O)c3cn4cc(C56COC(C)(C5)C6)nc4nc3OC(C)C)cnn2c1
2.8

====

- run-description: Volume of distribution at steady state in rat at 1 mg/kg, iv by LC-MS/MS analysis
- Format: ADME, organism-based
- condition-details: in vivo, read-out: Vdss
parameter: Vd

Using known records, supply Vd for Cc1cnc2c(NC(=O)c3cn4cc(C56COC(C)(C5)C6)nc4nc3OC(C)C)cnn2c1
2.2 L/kg

====

Could you please report measured CLint scaled for the items listed next?
- run-description: Metabolic stability in rat hepatocytes assessed as intrinsic clearance
- Type: ADME, cell-based, Hepatocyte
- condition-details: read-out: CLH

Determine its reported CLint scaled: Cc1cc(NC(=O)c2cccc(C(F)F)n2)cn2cc(C3CCOCC3)nc12
12 mL/min/kg

Please indicate CLint scaled recorded for CCOc1cc2nc(C3CCOCC3)cn2cc1NC(=O)c1cccc(C(F)F)n1
63 mL/min/kg

For the compound Cc1cc2nc(C3CCOCC3)cn2cc1NC(=O)c1cccc(C(F)F)n1 , give its measured CLint scaled value.
36 mL/min/kg

Fill in reported CLint scaled for this entry: COc1cc(NC(=O)c2cccc(C(F)(F)F)n2)cn2cc(C3CCOCC3)nc12
< 3 mL/min/kg

Note down CLint scaled recorded for CC(C)Oc1cc2nc(C3CCOCC3)cn2cc1C(=O)Nc1cccc(C(F)F)n1
29 mL/min/kg

Indicate its recorded CLint scaled; the compound in question is CC(C)Oc1cc2nc(C34COC(C)(C3)C4)cn2cc1C(=O)Nc1cccc(C(F)F)n1
< 3 mL/min/kg

Please list CLint scaled recorded for the compound CCOc1cc2nc(C34COC(C)(C3)C4)cn2cc1NC(=O)c1cccc(C(F)F)n1
11 mL/min/kg

Fill in CLint scaled for record CC(C)Oc1cc2nc(C3CCOCC3)cn2cc1NC(=O)c1cccc(C(F)F)n1
37 mL/min/kg

====

- run-description: Oral bioavailability in cynomolgus monkey at 1 mg/kg by LC-MS/MS analysis
- Type: ADME, organism-based, Macaca fascicularis
- condition-details: in vivo
parameter: bioavailability (%)
Write it as a number; the unit % goes unstated.

Quote bioavailability reported for Cc1cnc2c(NC(=O)c3cn4cc(C56COC(C)(C5)C6)nc4nc3OC(C)C)cnn2c1 please.
95

====

- System: MDR1 (P-gp)
- run-description: Efflux ratio of apparent permeability across basolateral to apical side over apical to basolateral side in MDCK-MDR1 cells at 1 uM incubated for 120 mins by LC-MS/MS analysis
- Format: ADME, cell-based, Canis lupus familiaris
- condition-details: dog
parameter: efflux ratio at 2 h, 1 µM
# print the numeric value only

Using the record for CCOc1cc2nc(C3CC3)cn2cc1NC(=O)c1cccc(C(F)F)n1 , state its measured efflux ratio at 2 h, 1 µM.
0.4

Consider the compound CCOc1cc2nc(CCCOC)cn2cc1NC(=O)c1cccc(C(F)F)n1 . State its measured efflux ratio at 2 h, 1 µM.
1.1

Give a short answer stating reported efflux ratio at 2 h, 1 µM for CCOc1cc2nc(C[C@@H]3CCOC3)cn2cc1NC(=O)c1cccc(C(F)F)n1 .
1.5

Supply measured efflux ratio at 2 h, 1 µM of CCOc1cc2nc(C3CCOCC3)cn2cc1NC(=O)c1cccc(C(F)F)n1 in your reply.
2

Look up efflux ratio at 2 h, 1 µM of CCOc1cc2nc(C3(OC)CC3)cn2cc1NC(=O)c1cccc(C(F)F)n1 and report it.
0.7

Quick one: give measured efflux ratio at 2 h, 1 µM for CCOc1cc2nc(CCOC)cn2cc1NC(=O)c1cccc(C(F)F)n1
0.5

Tell me its efflux ratio at 2 h, 1 µM given CCOc1cc2nc(C34COC(C)(C3)C4)cn2cc1NC(=O)c1cccc(C(F)F)n1 as the entry.
1.4

Read the entry CCOc1cc2nc(C(C)(C)O)cn2cc1NC(=O)c1cccc(C(F)F)n1 and write its reported efflux ratio at 2 h, 1 µM.
5.5

====

- run-description: Unbound clearance in rat at 1 mg/kg, iv by LC-MS/MS analysis
- Format: ADME, organism-based
- condition-details: in vivo
For each entry below, report its CL free value.
# value in mL/min/kg; strip the unit string

Fill in CL free for record CCOc1cc2nc(C3CCOCC3)cn2cc1NC(=O)c1cccc(C(F)F)n1
1738

Tell us which CL free value is on record for COc1cc(NC(=O)c2cccc(C(F)(F)F)n2)cn2cc(C3CCOCC3)nc12
45

Identify measured CL free associated with CCOc1cc2nc(C34COC(C)(C3)C4)cn2cc1NC(=O)c1cccc(C(F)F)n1
1388

Check the records and state CL free for Cc1cc(NC(=O)c2cccc(C(F)F)n2)cn2cc(C3CCOCC3)nc12
227

Give the reported value of CL free for this record: CC(C)Oc1nc2nc(C34COC(C)(C3)C4)cn2cc1C(=O)Nc1cnn2cc(F)cnc12
67

Give the reported CL free for this molecule. CC(C)Oc1cc2nc(C3CCOCC3)cn2cc1NC(=O)c1cccc(C(F)F)n1
1788

Report CL free for Cc1cnc2c(NC(=O)c3cn4cc(C56COC(C)(C5)C6)nc4c(F)c3OC(C)C)cnn2c1
28

Given Cc1cc2nc(C3CCOCC3)cn2cc1NC(=O)c1cccc(C(F)F)n1 , respond with its CL free.
149

Note CL free for the molecule shown: CC(C)Oc1cc2nc(C34COC(C)(C3)C4)cn2cc1C(=O)Nc1cnn2cccnc12
143

In one line, give reported CL free of the entry CC(C)Oc1cc2nc(C34COC(C)(C3)C4)cn2cc1C(=O)Nc1cccc(C(F)F)n1 .
563

For the molecule CC(C)Oc1nc2nc(C34COC(C)(C3)C4)cn2cc1C(=O)Nc1cnn2cccnc12 , report CL free.
64

Name the recorded CL free of the molecule listed here: Cc1cnc2c(NC(=O)c3cn4cc(C56COC(C)(C5)C6)nc4nc3OC(C)C)cnn2c1
30

====

Task for the reader: assign each of the following compounds its reported CLint scaled.
- run-description: Metabolic stability in rat liver microsomes assessed as intrinsic clearance
- Assay type: ADME, Microsome
- condition-details: read-out: CLH
Numeric answer only, unit mL/min/kg assumed.

Give a short answer stating reported CLint scaled for CCOc1cc2nc(CCCOC)cn2cc1NC(=O)c1cccc(C(F)F)n1 .
266

Let me know recorded CLint scaled for CCOc1cc2nc(CCOC)cn2cc1NC(=O)c1cccc(C(F)F)n1 , thanks.
240

Let me know recorded CLint scaled for CCOc1cc2nc(C3CCOCC3)cn2cc1NC(=O)c1cccc(C(F)F)n1 , thanks.
40

State, in one line, measured CLint scaled of CC(C)Oc1cc2nc(C3CCOCC3)cn2cc1NC(=O)c1cccc(C(F)F)n1
61

Answer with reported CLint scaled of CCOc1cc2nc(C3CC3)cn2cc1NC(=O)c1cccc(C(F)F)n1
145

Hello, please tell me recorded CLint scaled for this one: Cc1cc2nc(C3CCOCC3)cn2cc1NC(=O)c1cccc(C(F)F)n1
20

Supply reported CLint scaled belonging to this compound: CCOc1cc2nc(C3(OC)CC3)cn2cc1NC(=O)c1cccc(C(F)F)n1
198

Item CC(C)Oc1cc2nc(C34COC(C)(C3)C4)cn2cc1C(=O)Nc1cccc(C(F)F)n1 : provide CLint scaled
11

Given the compound Cc1cc(NC(=O)c2cccc(C(F)F)n2)cn2cc(C3CCOCC3)nc12 , write its reported CLint scaled.
26

For the compound CC(C)Oc1cc2nc(C3CCOCC3)cn2cc1C(=O)Nc1cccc(C(F)F)n1 , give its reported CLint scaled.
81

Give me measured CLint scaled, please, for this compound: COc1cc(NC(=O)c2cccc(C(F)(F)F)n2)cn2cc(C3CCOCC3)nc12
20

Please supply the value of reported CLint scaled for the item CCOc1cc2nc(C[C@@H]3CCOC3)cn2cc1NC(=O)c1cccc(C(F)F)n1
171
